Tested on: HCC 2998
Experiment: NCI tumour cell line growth inhibition, 48 h
Active and inactive are the calls of the source. Cut-off read from the data, not from the text of the source: active = GI50 up to about 1.1 µM and inactive = higher.
RESULT TYPE: GI50

Reference set (7 entries):
{"columns": ["COMPOUND", "RESULT"],
 "data": [
  ["COc1c(Cl)cc(NC(=S)C#N)cc1Cl", "15.9 µM (inactive)"],
  ["CC1OC(OC2C(OC(=O)[C@]34CCC(C)(C)CC3C3=CCC5[C@@]6(C)C[C@H](O)[C@H](OC7OC(COC8OC(CO)C(O)C(O)C8O)C(O)C(O)C7O)[C@@](C)(C(=O)O)C6CC[C@@]5(C)C3(C)CC4)OCC(O)C2O)C(O)C(O)C1OC1OCC(O)C(O)C1O (stereo partly drawn)", "> 100 µM (inactive)"],
  ["CC(C)(C)OC(=O)NCCNCCNc1ccccc1", "> 100 µM (inactive)"],
  ["CC(=O)O[C@H]1CC[C@@]2(C)[C@H](CC[C@@H]3[C@@H]2CC[C@]2(C)[C@@H](c4ccc(=O)oc4)C[C@H]4O[C@]342)C1", "1.33 µM (inactive)"],
  ["CCCCCCCC1(N=[N+]=[N-])C(=O)c2ccccc2N(C)C1=O (stereo not drawn)", "> 100 µM (inactive)"],
  ["O=C(NCCCCCCCN1CCCCCCC1)C(C1CCCCC1)C1CCCCC1", "2.76 µM (inactive)"],
  ["O=C(O)c1c[nH]c2c(ccc3ncccc32)c1=O", "> 100 µM (inactive)"]
]}

Below: the item to evaluate.
Name the recorded GI50 of the item N#CC(CCN1CCC(Nc2ccccc2)(c2nnnn2C2CCCCC2)CC1)(c1ccccc1)c1ccccc1 in your answer. > 100 µM (inactive)

====

Tested on: MDA-N
Experiment: NCI tumour cell line growth inhibition, 48 h
Activity calls are given as the source filed them. Rule as the data show it: active = GI50 up to about 1.1 µM and inactive = higher.
RESULT TYPE: GI50

{"columns": ["COMPOUND", "RESULT"],
 "data": [
  ["CC(C)=CCc1c2c(c3occ(-c4ccc(O)cc4)c(=O)c3c1O)CC(C(C)(C)O)O2 (stereo not given)", "21.4 µM (inactive)"]
]}

For the compound CC(=O)OCc1cn(S(=O)(=O)c2ccc(C)cc2)cn1 , report GI50. 12.5 µM (inactive)

====

Test system: SF-539
Assay: NCI tumour cell line growth inhibition, 48 h
The source made the active and inactive calls. No stated cut-off is given here; in the data, active = GI50 up to about 1.1 µM and inactive = higher.
Recorded GI50 by entry

{"columns": ["COMPOUND", "GI50"],
 "data": [
  ["CCCCCCCCCCCCCCCCOP(=O)([O-])OCC[N+](C)(C)C [MILTEFOSINE]", "30.5 µM (inactive)"],
  ["N/C(=N\\c1ccc(Cl)cc1)NS(=O)(=O)c1ccc(S(=O)(=O)c2ccccc2)s1", "22.7 µM (inactive)"],
  ["C/C(COc1ccccc1)=N\\NC(N)=S", "90.4 µM (inactive)"],
  ["CC(C(=O)n1ccnc1)N1c2ccccc2Sc2ccccc21 (stereo not drawn)", "> 100 µM (inactive)"],
  ["C=C(C)C1Cc2c(cc(OC)c3c(=O)c4cccc(O)c4oc23)O1 (stereo not drawn)", "18.4 µM (inactive)"]
]}

Turning now to a further record.
Assign GI50 to the following record: CC(C)=CCOc1cc(NC(=S)c2ccsc2C)ccc1Cl 55.1 µM (inactive)

====

System: NCI-H522
Assay: NCI tumour cell line growth inhibition, 48 h
Activity calls are given as the source filed them. No stated cut-off is given here; in the data, active = GI50 up to about 1.1 µM and inactive = higher.
I would appreciate it if you answered using one of these outcomes: Y = active, N = inactive

Past entries and their recorded results:
{"columns": ["COMPOUND", "DISCRETE LABEL"],
 "data": [
  ["Cc1cc(C)nc(Sc2c([N+](=O)[O-])ncn2C)n1", "N"],
  ["N#Cc1c(-c2ccccc2)c(CN2CCCCC2)c(=O)n2c1[nH]c1ccccc12", "N"],
  ["CC(C)NC(=O)OCc1nnn2c1CCC2", "N"],
  ["Cc1cccc(C)c1NC(=O)CCc1n[nH]c(=S)o1", "N"],
  ["NC(=O)NC(=O)c1cnccn1", "N"],
  ["Cc1ccc(S(=O)(=O)N/N=C2\\C3CC4CC(C3)C2C4)cc1 (stereo unspecified)", "N"],
  ["CCOC(=O)C(=O)Nc1c(C(C)C)cccc1C(C)C", "N"],
  ["CC(=O)OC1CC2C(C)(C)C(=O)C=C[C@]2(C)C2CCC3(C)C(c4ccoc4)C(=O)C4OC43[C@]12C (stereo partly specified)", "N"]
]}

Any idea what this test logged for CC[C@@]1(O)C(=O)OCc2c1cc1n(c2=O)Cc2c-1nc1ccc(O)cc1c2CC[Si](C)(C)C ? Y

# lookup: test call for O=C(O)c1ccccc1C(=O)Nc1cc2c(cc1Br)-c1ccccc1C2=O N

# fetch the recorded call for O=C(Oc1cncc(Cl)c1)c1cc2ccccc2sc1=O here N
